assay_text: method code SF-AS, from DOI: 10.1021/jm00089a008, PMID: 1317921
condition_set: pH 7.4
parameter: logD

Record O=c1nc(/N=C/N2CCOCC2)ccn1C1CC(F)C(CO)O1 (stereo not drawn) . Reported logD: -0.68

// logD lookup, molecule = CC(C)N(/C=N/c1ccn([C@H]2C[C@H](F)[C@@H](CO)O2)c(=O)n1)C(C)C , result: 1.14

response.value for CC(C)N(/C=N/c1ccn([C@H]2CC[C@@H](CO)O2)c(=O)n1)C(C)C (field: logD) = 0.72
